The measured values listed here are drawn from paper PMC8588511.

test: cytotoxicity assay (methylene blue); type: cell-based, human; settings: human; HeLa, 72 h; read-out: Cytotoxicity CC50 (CI 95%)
REPORTED PROPERTY: CC50 at 72 h

Just so you know, measured CC50 at 72 h for `CC[C@H](CC[C@@H](C)[C@H]1CC[C@H]2[C@@H]3CC=C4C[C@@H](O)CC[C@]4(C)[C@H]3CC[C@]12C)C(C)C` came out at > 100 µM

---

test system: human lung carcinoma cells (A549); experiment: antiproliferation assay (CellTiter-Blue); format: cell-based; conditions: Homo sapiens, A549, 72 h; read-out: Antiproliferative Effect, GI50 (CI 95%)
I'd appreciate it if you could supply GI50 values for the items below.

Note to self: GI50 of COc1ccccc1-c1coc2cc(O)c(OC)c(O)c2c1=O [Compound 8, 5,7-Dihydroxy-6,2′-dimethoxyisoflavone] with human lung carcinoma cells (A549) was > 100 µM

Note to self: GI50 of O=C1CC(c2ccccc2O)Oc2cc3c(c(O)c21)OCO3 (stereo not shown) with human lung carcinoma cells (A549) was 81 µM

Note to self: GI50 of `COc1cc2occ(-c3cccc(O)c3O)c(=O)c2c(O)c1OC` with human lung carcinoma cells (A549) was 98.8 µM

Note to self: GI50 of O=C1C[C@@H](c2cccc(O)c2O)Oc2cc(O)cc(O)c21 [Compound 3, (2S)-5,7,2′,3′-Tetrahydroxyflavanone] with human lung carcinoma cells (A549) was > 100 µM

Note to self: GI50 of O=C1C=CCCC(O)C2CC(=O)c3c(O)cc(cc3O2)OC2OC(CO1)C(O)C(O)C2O (stereo not shown) [Compound 1, Moniristenulide] with human lung carcinoma cells (A549) was > 100 µM

Note to self: GI50 of COc1cc(O)c2c(c1)OC(c1cccc(O)c1OC)C(O)C2=O (stereo not shown) with human lung carcinoma cells (A549) was > 100 µM

Note to self: GI50 of COc1cc(O)c2c(c1)OC(c1cccc(O)c1O)CC2=O (stereo not shown) [Compound 6, 5,2′,3′-Trihydroxy-7-methoxyflavanone] with human lung carcinoma cells (A549) was 70.9 µM

Note to self: GI50 of COc1cc2occ(-c3ccccc3OC3OC(CO)C(O)C(O)C3O)c(=O)c2c(O)c1OC (stereo not shown) with human lung carcinoma cells (A549) was > 100 µM

Note to self: GI50 of COc1c2c(cc3c1C1CC(O3)c3ccccc3O1)OCO2 (stereo not shown) with human lung carcinoma cells (A549) was > 100 µM

Note to self: GI50 of O=C1CC(c2cccc(O)c2O)Oc2cc3c(c(O)c21)OCO3 (stereo not shown) with human lung carcinoma cells (A549) was > 100 µM

---

system: Mycobacterium vaccae (10670 M4); experiment: agar diffusion antimicrobial assay; type: cell-based; conditions: Mycolicibacterium vaccae; Mycobacterium vaccae (10670 M4); 50 μL of 1 mg/mL in DMSO, 18 h; ciprofloxacin 5 µg/mL; read-out: Inhibition Zone of Test Microorganism
REPORTED PROPERTY: zone of inhibition at 1000 µg/mL (mm)
Express it in mm; write the number only.

Just so you know, measured zone of inhibition at 1000 µg/mL for `COc1cc2occ(-c3cccc(O)c3O)c(=O)c2c(O)c1OC` came out at 16

Just so you know, measured zone of inhibition at 1000 µg/mL for COc1c2c(cc3c1C1CC(O3)c3ccccc3O1)OCO2 (stereo not shown) came out at 17

Just so you know, measured zone of inhibition at 1000 µg/mL for O=C1CC(c2cccc(O)c2O)Oc2cc3c(c(O)c21)OCO3 (stereo not shown) came out at 20

Just so you know, measured zone of inhibition at 1000 µg/mL for O=C1C[C@@H](c2cccc(O)c2O)Oc2cc(O)cc(O)c21 [Compound 3, (2S)-5,7,2′,3′-Tetrahydroxyflavanone] came out at 23

---

experiment: cytotoxicity assay (methylene blue); format: cell-based, human; conditions: human, HeLa cells (DSM ACC 57); HeLa, 72 h; read-out: Cytotoxicity CC50 (CI 95%)
I'd appreciate it if you could supply CC50 at 72 h values for the items below.

Just so you know, measured CC50 at 72 h for COc1c2c(cc3c1C1CC(O3)c3ccccc3O1)OCO2 (stereo not drawn) came out at 42.6 µM

Just so you know, measured CC50 at 72 h for `COc1cc2occ(-c3cccc(O)c3O)c(=O)c2c(O)c1OC` came out at > 100 µM

Just so you know, measured CC50 at 72 h for COc1cc2occ(-c3ccccc3OC3OC(CO)C(O)C(O)C3O)c(=O)c2c(O)c1OC (stereo not drawn) came out at > 100 µM

Just so you know, measured CC50 at 72 h for Cc1ccc(NC(=O)c2ccc(CN3CCN(C)CC3)cc2)cc1Nc1nccc(-c2cccnc2)n1 [Imatinib, imatinib, reference compound] came out at 78.6 µM

Just so you know, measured CC50 at 72 h for COc1cc(O)c2c(c1)OC(c1cccc(O)c1OC)C(O)C2=O (stereo not drawn) came out at > 100 µM

Just so you know, measured CC50 at 72 h for O=C1CC(c2ccccc2O)Oc2cc3c(c(O)c21)OCO3 (stereo not drawn) came out at > 100 µM

Just so you know, measured CC50 at 72 h for COc1cccc2c1C(=O)c1c(O)c3c(c(O)c1C2=O)C[C@@](O)(C(=O)CO)C[C@@H]3O[C@H]1C[C@H](N)[C@H](O)[C@H](C)O1 [Doxorubicin, reference compound] came out at 0.48 µM

Just so you know, measured CC50 at 72 h for O=C1C[C@@H](c2cccc(O)c2O)Oc2cc(O)cc(O)c21 [Compound 3, (2S)-5,7,2′,3′-Tetrahydroxyflavanone] came out at > 100 µM

Just so you know, measured CC50 at 72 h for O=C1CC(c2cccc(O)c2O)Oc2cc3c(c(O)c21)OCO3 (stereo not drawn) came out at > 100 µM

Just so you know, measured CC50 at 72 h for COc1ccccc1-c1coc2cc(O)c(OC)c(O)c2c1=O [Compound 8, 5,7-Dihydroxy-6,2′-dimethoxyisoflavone] came out at > 100 µM

Just so you know, measured CC50 at 72 h for COc1cc(O)c2c(c1)OC(c1cccc(O)c1O)CC2=O (stereo not drawn) [Compound 6, 5,2′,3′-Trihydroxy-7-methoxyflavanone] came out at > 100 µM

Just so you know, measured CC50 at 72 h for O=C1C=CCCC(O)C2CC(=O)c3c(O)cc(cc3O2)OC2OC(CO1)C(O)C(O)C2O (stereo not drawn) [Compound 1, Moniristenulide] came out at > 100 µM
